Reported pEC50 values for a set of compounds
# testedSystem: human mAChR M1 (Homo sapiens, UniProt P11229)
# assayProcedure: mAChR M1 cell-based functional assay: calcium mobilization, positive allosteric modulator mode (increase in EC20 acetylcholine response)
# measurementSetup: Table 1; mAChR M1 cell-based functional assay, PAM mode; species not given; read-out: EC50
# Method: a. Cell Lines Expressing Muscarinic Acetylcholine Receptors Chinese hamster ovary (CHO-K1) cells stably expressing rat (r)M1 were purchased from the American Type Culture Collection and cultured according to their indicated protocol. […] Calcium flux was measured using the Functional Drug Screening System (FDSS) 6000 (Hamamatsu Corporation, Tokyo, Japan) as an increase in the fluorescent static ratio. […]
pEC50: −log10 of the molar value.

Example entries and their recorded answers appear below.
- compound: "Cc1ccc(Oc2cc(C(=O)NC3CCCNC3=O)nc3ccsc23)cn1 (stereo not drawn)"
  testedSystem: "human mAChR M1 (Homo sapiens, UniProt P11229)"
  experimentalValue: "< 5.00"
- compound: "Cn1cc(-c2ccc(Oc3cc(C(=O)N[C@H]4CCC[C@@H]4O)nc4ccsc34)c(F)c2)cn1"
  testedSystem: "human mAChR M1 (Homo sapiens, UniProt P11229)"
  experimentalValue: "< 5.00"
- compound: "Cc1ccc(Oc2cc(C(=O)N[C@H]3CCCC[C@@H]3O)nc3ccsc23)cn1"
  testedSystem: "human mAChR M1 (Homo sapiens, UniProt P11229)"
  experimentalValue: 5.94
- compound: "Cc1ccc(Oc2cc(C(=O)N[C@H]3CCCCC[C@@H]3O)nc3ccsc23)cn1"
  testedSystem: "human mAChR M1 (Homo sapiens, UniProt P11229)"
  experimentalValue: 6.12
- compound: "Cc1ccc(Oc2cc(C(=O)NC3CCOCC3)nc3ccsc23)cn1"
  testedSystem: "human mAChR M1 (Homo sapiens, UniProt P11229)"
  experimentalValue: "< 5.00"
- compound: "Cc1ccc(Oc2cc(C(=O)NC(CO)c3ccccc3)nc3ccsc23)cn1 (stereo not drawn)"
  testedSystem: "human mAChR M1 (Homo sapiens, UniProt P11229)"
  experimentalValue: "< 5.00"
- compound: "Cc1ccc(Oc2cc(C(=O)NCC(O)C(F)(F)F)nc3ccsc23)cn1 (stereo not drawn)"
  testedSystem: "human mAChR M1 (Homo sapiens, UniProt P11229)"
  experimentalValue: "< 5.00"
- compound: "Cn1cc(-c2ccc(Oc3cc(C(=O)NC4CCOCC4)nc4ccsc34)c(F)c2)cn1"
  testedSystem: "human mAChR M1 (Homo sapiens, UniProt P11229)"
  experimentalValue: 5.30

Next item in the queue.
In one line, give reported pEC50 of the entry Cc1ccc(Oc2cc(C(=O)NC3CCCCC3)nc3ccsc23)cn1 .
< 5.00

###

Reported Emax values for a set of compounds
# testedSystem: human mAChR M1 (Homo sapiens)
# Sequence (P11229 1-460): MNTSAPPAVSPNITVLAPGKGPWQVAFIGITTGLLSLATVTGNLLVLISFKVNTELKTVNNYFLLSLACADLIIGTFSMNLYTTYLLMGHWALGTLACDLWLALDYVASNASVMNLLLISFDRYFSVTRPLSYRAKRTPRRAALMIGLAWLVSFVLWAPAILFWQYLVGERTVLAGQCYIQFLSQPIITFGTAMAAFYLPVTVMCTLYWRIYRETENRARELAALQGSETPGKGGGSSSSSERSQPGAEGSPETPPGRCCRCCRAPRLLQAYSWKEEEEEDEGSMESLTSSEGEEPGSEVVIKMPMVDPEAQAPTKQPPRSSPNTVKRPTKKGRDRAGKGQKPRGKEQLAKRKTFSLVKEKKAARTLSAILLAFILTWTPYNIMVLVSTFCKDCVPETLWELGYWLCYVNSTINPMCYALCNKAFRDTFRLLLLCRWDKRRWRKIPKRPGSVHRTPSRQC
# assayProcedure: mAChR M1 cell-based functional assay: calcium mobilization, positive allosteric modulator mode (increase in EC20 acetylcholine response)
# measurementSetup: Table 2; human M1; read-out: Human M1 Emax (%)
Give just the number in %; leave the unit off.

Example entries and their recorded answers appear below.
- compound: "CC1COCCC1NC(=O)c1cc(Cc2ccc(-n3cccn3)cc2)c2sccc2n1 (centres unmarked) [Compound 444]"
  testedSystem: "human mAChR M1 (Homo sapiens)"
  propertyMeasured: "Emax"
  unitsSymbol: "%"
  experimentalValue: 71
- compound: "O=C(NC1CCC(F)(F)CC1)c1cc(Cc2ccc(-c3nccs3)cc2)c2sccc2n1 [Compound 385]"
  testedSystem: "human mAChR M1 (Homo sapiens)"
  propertyMeasured: "Emax"
  unitsSymbol: "%"
  experimentalValue: 41.1

In one line, give reported Emax of the entry Cn1ccc(-c2ccc(Cc3cc(C(=O)NCC4CCOC4)nc4ccn(C)c34)cn2)n1 (centres unmarked) [Compound 509] .
75.4

In one line, give reported Emax of the entry Cc1csc2c(Cc3ccc(-n4cccn4)cc3)cc(C(=O)N[C@@H]3CCCC[C@H]3O)nc12 [Compound 116] .
78.7

In one line, give reported Emax of the entry Cn1cc(-c2ccc(Cc3cc(C(=O)NC4CC5(COC5)C4)nc4ccsc34)cc2)nn1 [Compound 175] .
84.3

In one line, give reported Emax of the entry Cn1ccc2nc(C(=O)NCC3CCOCC3)cc(Cc3ccc(-c4cscn4)cc3)c21 [Compound 466] .
72.2

In one line, give reported Emax of the entry COCCNC(=O)c1cc(Cc2ccc(-n3cccn3)cc2)c2sccc2n1 [Compound 429] .
72.7

In one line, give reported Emax of the entry Cn1ncc2nc(C(=O)N[C@H]3CCC[C@@H]3O)cc(Cc3ccc(-c4cscn4)cc3)c21 [Compound 491] .
72.9

In one line, give reported Emax of the entry O=C(c1cc(Cc2ccc(-n3cccn3)cc2)c2sccc2n1)N1CC2CC1CO2 (centres unmarked) [Compound 445] .
50.7

In one line, give reported Emax of the entry Cc1ccc(Cc2cc(C(=O)Nc3c[nH]cn3)nc3ccsc23)cn1 [Compound 70] .
62.4

In one line, give reported Emax of the entry Cc1ccc(Cc2cc(C(=O)N[C@@H]3CCOC3)nc3ccsc23)cn1 [Compound 262] .
24.4

In one line, give reported Emax of the entry Cc1nc(-c2ccc(Cc3cc(C(=O)N[C@H]4CCOC[C@@H]4O)nc4ccsc34)cc2)cs1 [Compound 192] .
78.7

In one line, give reported Emax of the entry O=C(NC1CC(F)C1)c1cc(Cc2ccc(-c3cscn3)cc2)c2sccc2n1 (centres unmarked) [Compound 205] .
78

In one line, give reported Emax of the entry Cc1csc2c(Cc3ccc(-n4cccn4)cc3)cc(C(=O)NC[C@H]3CCCO3)nc12 [Compound 322] .
75.1

In one line, give reported Emax of the entry Cc1nn(C)c(C)c1-c1ccc(Cc2cc(C(=O)NC3CCOCC3)nc3ccsc23)cc1 [Compound 243] .
17.9

In one line, give reported Emax of the entry Cc1csc2c(Cc3ccc(-n4cccn4)cc3)cc(C(=O)N[C@@H]3CCCCC[C@H]3O)nc12 [Compound 120] .
75.3

In one line, give reported Emax of the entry O=C(NC[C@@H]1CCCO1)c1cc(Cc2ccc(-c3nccs3)cc2)c2sccc2n1 [Compound 389] .
64.9

###

# testedSystem: human mAChR M1 (Homo sapiens)
# Sequence (P11229 1-460): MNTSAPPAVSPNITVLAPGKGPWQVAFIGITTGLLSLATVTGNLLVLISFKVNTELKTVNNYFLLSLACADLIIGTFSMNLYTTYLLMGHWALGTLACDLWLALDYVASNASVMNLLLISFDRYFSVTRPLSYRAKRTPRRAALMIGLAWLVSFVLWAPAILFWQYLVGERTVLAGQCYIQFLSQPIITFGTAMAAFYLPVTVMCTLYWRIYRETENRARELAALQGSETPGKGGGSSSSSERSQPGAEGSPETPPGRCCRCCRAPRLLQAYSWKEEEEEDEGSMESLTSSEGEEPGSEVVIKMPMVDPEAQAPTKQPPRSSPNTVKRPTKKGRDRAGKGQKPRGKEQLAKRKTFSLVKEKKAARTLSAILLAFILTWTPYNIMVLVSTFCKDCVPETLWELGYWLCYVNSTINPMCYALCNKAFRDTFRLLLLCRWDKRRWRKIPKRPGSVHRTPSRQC
# assayProcedure: mAChR M1 cell-based functional assay: calcium mobilization, positive allosteric modulator mode (increase in EC20 acetylcholine response)
# measurementSetup: Table 2; human M1; read-out: Human M1 Emax (%)
Reported Emax values for a set of compounds
Give just the number in %; leave the unit off.

- compound: "O=C(N[C@H]1CCOC[C@@H]1O)c1cc(Cc2c(F)cc(-c3cscn3)cc2F)c2sccc2n1 [Compound 270]"
  Emax [%]: 78.5
- compound: "O=C(N[C@H]1CCOC1)c1cc(Cc2ccc(-c3cscn3)cc2)c2sccc2n1 [Compound 208]"
  Emax [%]: 80.3
- compound: "CC1CC(NC(=O)c2cc(Cc3ccc(-c4nccs4)cc3)c3sccc3n2)CC(C)O1 (centres unmarked) [Compound 386]"
  Emax [%]: 66.1
- compound: "Cn1ncc2nc(C(=O)N[C@H]3CCCC[C@@H]3O)cc(Cc3ccc(-c4cscn4)cc3)c21 [Compound 492]"
  Emax [%]: 73.3
- compound: "Cn1ccc(-c2ccc(Cc3cc(C(=O)N[C@@H]4CC[C@H]4O)nc4ccsc34)cn2)n1 [Compound 412]"
  Emax [%]: 69.1

Next item in the queue.
In one line, give reported Emax of the entry O=C(NC1CCOCC1)c1cc(C(=O)c2ccc(-n3cccn3)cc2)c2sccc2n1 [Compound 264] .
72.7
